Target: ICE (Homo sapiens, UniProt P29466)
Sequence (P29466 120-297 limits assumed): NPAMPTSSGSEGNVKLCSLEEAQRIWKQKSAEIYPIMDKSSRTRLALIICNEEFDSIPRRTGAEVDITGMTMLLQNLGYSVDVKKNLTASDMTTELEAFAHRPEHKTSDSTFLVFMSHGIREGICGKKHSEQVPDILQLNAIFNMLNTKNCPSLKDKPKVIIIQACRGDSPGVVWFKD
Sequence (P29466 317-404 limits assumed): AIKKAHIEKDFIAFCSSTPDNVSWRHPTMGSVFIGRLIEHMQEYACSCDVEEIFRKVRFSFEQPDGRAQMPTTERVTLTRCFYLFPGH
pIC50: −log10 of the molar value.
MEASUREMENT_TYPE: pIC50

Solved cases (3 shown):
>>> reported("CC(C)C(CC(=O)NCCc1nnn[nH]1)C(=O)NC(CC(=O)O)C(=O)CNS(=O)(=O)CC12CCC(CC1=O)C2(C)C (stereo not shown)")
6.94
>>> reported("CC(C)[C@H](CC(=O)NCCOc1ccccc1)C(=O)NC(C=O)CC(=O)O (stereo partly shown)")
6.27
>>> reported("CC(C)C(CC(=O)NCCc1cn(C)c2ccc(F)cc12)C(=O)NC(C=O)CC(=O)O (stereo not shown)")
7.43

a: CC(C)C(CC(=O)NCCCc1ccccc1)C(=O)NC(CC(=O)O)C(=O)COc1cc2ccccc2cc1-c1ncc[nH]1 (stereo not shown)
b: CC(C)C(CC(=O)NCCCc1ccc(O)cc1)C(=O)NC(CC(=O)O)C(=O)CNS(=O)(=O)CC12CCC(CC1=O)C2(C)C (stereo not shown)
c: CCOC1OC(=O)CC1NC(=O)C(CC(=O)NCCn1ncc2ccccc21)C(C)C (stereo not shown)
d: CCOC(=O)CC(C=O)NC(=O)C(CC(=O)NCCOc1ccccc1)C(C)C (stereo not shown)
hey, can you rank those compounds up there by pIC50? biggest number first please Would you mind listing the labels in the order requested?
a, b, c, d

----------
biological target: Ich-2 enzyme (Homo sapiens, UniProt P49662)
Sequence (P49662 81-270 limits assumed): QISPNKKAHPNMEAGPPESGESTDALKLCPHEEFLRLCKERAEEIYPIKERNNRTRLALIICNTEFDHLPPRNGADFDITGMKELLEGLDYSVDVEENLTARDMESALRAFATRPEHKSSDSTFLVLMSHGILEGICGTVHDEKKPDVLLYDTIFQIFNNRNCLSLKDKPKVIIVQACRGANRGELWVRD
Sequence (P49662 290-377 limits assumed): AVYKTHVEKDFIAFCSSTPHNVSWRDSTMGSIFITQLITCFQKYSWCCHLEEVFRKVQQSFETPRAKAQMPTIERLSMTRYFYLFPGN
MEASUREMENT_TYPE: IC50 (µM)

>>> reported("CC(C)C(CC(=O)NCCc1ccncc1)C(=O)NC(CC(=O)O)C(=O)CNS(=O)(=O)CC12CCC(CC1=O)C2(C)C (stereo not drawn)")
14.1
>>> reported("CC(C)C(CC(=O)NCCCc1cccc2ccccc12)C(=O)NC(CC(=O)O)C(=O)CNS(=O)(=O)CC12CCC(CC1=O)C2(C)C (stereo not drawn)")
5.58
>>> reported("CC(C)[C@H](CC(=O)NCCc1cn(C)c2ccccc12)C(=O)NC(CC(=O)O)C(=O)CNS(=O)(=O)CC12CCC(CC1)C2(C)C (stereo partly drawn)")
3.54

1: CC(C)C(CC(=O)NCCOc1ccccc1)C(=O)NC(CC(=O)O)C(=O)CNS(=O)(=O)CC12CCC(CC1=O)C2(C)C (stereo not drawn)
2: CC(C)C(CC(=O)NCCCc1ccccc1)C(=O)NC(CC(=O)O)C(=O)COc1ccc2oc(=O)ccc2c1 (stereo not drawn)
3: CC(C)C(CC(=O)NCCc1cn(C)c2ccc(F)cc12)C(=O)NC(C=O)CC(=O)O (stereo not drawn)
Your job: order these 3 records by IC50, ascending. Would you mind listing the labels in the order requested?
2, 1, 3
(2: 0.25 µM, 1: 4.22 µM, 3: 11.5 µM)

----------
Target: ICE (Homo sapiens)
Sequence (P29466 120-297 limits assumed): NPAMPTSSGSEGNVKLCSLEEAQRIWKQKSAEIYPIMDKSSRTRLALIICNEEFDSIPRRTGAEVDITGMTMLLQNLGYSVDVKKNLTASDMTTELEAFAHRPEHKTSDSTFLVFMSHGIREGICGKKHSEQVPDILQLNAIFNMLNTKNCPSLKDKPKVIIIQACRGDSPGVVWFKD
Sequence (P29466 317-404 limits assumed): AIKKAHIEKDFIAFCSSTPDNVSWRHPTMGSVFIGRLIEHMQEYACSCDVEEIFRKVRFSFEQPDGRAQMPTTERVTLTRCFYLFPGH
pKi: −log10 of the molar value.
MEASUREMENT_TYPE: pKi

Solved cases (4 shown):
>>> reported("CC(C)C(CC(=O)NCCc1ccccc1)C(=O)NC(CC(=O)O)C(=O)CSCCCc1ccccc1 (stereo not shown)")
6.27
>>> reported("CC(C)C(CC(=O)NCCCc1cccnc1)C(=O)NC(CC(=O)O)C(=O)CNS(=O)(=O)CC12CCC(CC1=O)C2(C)C (stereo not shown)")
7.61
>>> reported("CCOC1OC(=O)CC1NC(=O)C(CC(=O)NCCc1ccccc1)C(C)C (stereo not shown)")
6.00
>>> reported("CC(C)C(CC(=O)NCCn1cnc2ccccc21)C(=O)NC(CC(=O)O)C(=O)CNS(=O)(=O)CC12CCC(CC1=O)C2(C)C (stereo not shown)")
8.96

a: CC(C)C(CC(=O)NCCc1ccncc1)C(=O)NC(CC(=O)O)C(=O)CNS(=O)(=O)CC12CCC(CC1=O)C2(C)C (stereo not shown)
b: CCOC1OC(=O)CC1NC(=O)C(CC(=O)NCCCc1cc(OC)c(OC)c(OC)c1)C(C)C (stereo not shown)
c: CCOC1OC(=O)CC1NC(=O)C(CC(=O)NCCNc1ccccc1)C(C)C (stereo not shown)
Your job: order these 3 records by pKi, ascending. Would you mind listing the labels in the order requested?
b, c, a

----------
Molecular target: ICE (Homo sapiens, UniProt P29466)
Sequence (P29466 120-297 limits assumed): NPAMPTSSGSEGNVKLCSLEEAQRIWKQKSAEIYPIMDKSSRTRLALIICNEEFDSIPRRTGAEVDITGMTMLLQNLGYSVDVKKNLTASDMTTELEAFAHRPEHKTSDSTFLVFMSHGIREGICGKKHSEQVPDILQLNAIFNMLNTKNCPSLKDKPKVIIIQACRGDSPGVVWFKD
Sequence (P29466 317-404 limits assumed): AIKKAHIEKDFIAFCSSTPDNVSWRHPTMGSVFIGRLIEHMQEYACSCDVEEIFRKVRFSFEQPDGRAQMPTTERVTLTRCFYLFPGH
pKi: −log10 of the molar value.
MEASUREMENT_TYPE: pKi

Solved cases (4 shown):
>>> reported("Cc1cccc2c(CCNC(=O)CC(C(=O)NC(CC(=O)O)C(=O)CNS(=O)(=O)CC34CCC(CC3=O)C4(C)C)C(C)C)c[nH]c12 (stereo not drawn) [Example 19]")
9.05
>>> reported("CCOC1OC(=O)CC1NC(=O)[C@@H](CC(=O)NCCn1cnc2cc(Cl)c(Cl)cc21)C(C)C (stereo partly drawn) [Example 38]")
7.79
>>> reported("CCOC1OC(=O)CC1NC(=O)C(CC(=O)NCCc1c[nH]c2cc(OC)ccc12)C(C)C (stereo not drawn) [Example 40]")
7.45
>>> reported("CC(C)[C@H](CC(=O)NCCc1cn(C)c2ccccc12)C(=O)NC(CC(=O)O)C(=O)CNS(=O)(=O)CC12CCC(CC1)C2(C)C (stereo partly drawn) [Example 25]")
8.24

a: CC(C)C(CC(=O)N(C)CCc1cn(C)c2ccccc12)C(=O)NC(C=O)CC(=O)O (stereo not drawn) [Example 21]
b: CC(C)C(CC(N)=O)C(=O)NC(CC(=O)O)C(=O)CNS(=O)(=O)CC12CCC(CC1=O)C2(C)C (stereo not drawn) [Example 2]
c: CC(C)C(CC(=O)NO)C(=O)NC(CC(=O)O)C(=O)CNS(=O)(=O)CC12CCC(CC1=O)C2(C)C (stereo not drawn) [Example 15]
d: CC(C)C(CC(=O)NCCOc1ccccc1)C(=O)NC(C#N)CC(=O)O (stereo not drawn) [Example 65]
hey, can you rank those compounds up there by pKi? biggest number first please Would you mind listing the labels in the order requested?
a, b, c, d
